# assay.comment: qHTS assay to test for compound auto fluorescence at 535 nm (green) in HepG2 cells (AID 720675); note: % is set by controls: 0 for no effect and ±100 for the full control effect
# recorded.conditions: green autofluorescence 485/535 nm, 1 h; series mostly up to 91.3 µM
Activity calls are given as the source filed them. Calls come from the whole dose curve; as a rule, active = well fitted curve in the direction sought with a large enough effect in the repeat runs; inconclusive = weak or mixed curves; inactive = flat fitted curve, though single readings scatter.
endpoint.name: fluorescence, % of fluorescein control

Some molecules with known fluorescence, % of fluorescein control results, for comparison:
>  <molecule>
CNCCCC1c2ccccc2C=Cc2ccccc21

>  <data.value>
-0.0324% [at 18.6 µM] (inactive)

$$$$
>  <molecule>
CCCCC(CC)C(=O)OCCOCCOCCOCCOC(=O)C(CC)CCCC (configuration not stated)

>  <data.value>
inactive

$$$$
>  <molecule>
C=C(C)C(=O)OCCOC(=O)CC(C)=O

>  <data.value>
inactive

$$$$
>  <molecule>
O=C(CCCCCCC(=O)Nc1ccccc1)NO

>  <data.value>
inactive

$$$$
>  <molecule>
CN1CCN(CCCN2c3ccccc3Sc3ccc(S(=O)(=O)N(C)C)cc32)CC1

>  <data.value>
-0.102% [at 18.6 µM] (inactive)

$$$$

fluorescence, % of fluorescein control reported for this molecule O=C(NCCCN1CCOCC1)c1ccc(Cl)cc1 : inactive

Record CC1(C)C(=O)N(Br)C(=O)N1Cl , field fluorescence, % of fluorescein control: inactive

molecule Cc1cc(S(=O)(=O)O)ccc1N=Nc1c(O)ccc2ccccc12 , fluorescence, % of fluorescein control observed: inactive

The recorded fluorescence, % of fluorescein control for entry CCOC(=N)CC(=O)OCC equals inactive

Record CC1CC(O)CC(C)(C)C1 (configuration not stated) , field fluorescence, % of fluorescein control: inactive

Lookup result for CN(C)C(=O)Nc1ccc(Oc2ccc(Cl)cc2)cc1 ; measured fluorescence, % of fluorescein control: inactive

Short answer for CO[Si](C)(OC)OC : fluorescence, % of fluorescein control was inactive

* * *

# assay.comment: A CellTox Green Cytotoxicity Assay to monitor cytotoxicity in HepG2 cells - 40 hour (AID 1224879); note: nearly all actives have a fitted effect of over 40% in size
# recorded.conditions: CellTox Green fluorescence; series mostly up to 76.8 µM
Results filed as inconclusive are left out. Activity calls are given as the source filed them. Calls come from the whole dose curve; as a rule, active = well fitted activation curve with a large enough effect in the repeat runs; inconclusive = weak or mixed curves; inactive = flat fitted curve, though single readings scatter.
Just give me one of these, please: active, inactive

What did this assay record as the result for CCCCC(CC)CNCC(CC)CCCC (stereo not drawn) ?
inactive

Entry CN1CCN(CCCN2c3ccccc3Sc3ccc(S(=O)(=O)N(C)C)cc32)CC1 : call = ?
active

Please let me know the test result on file for C=CC(C)=CCC=C(C)C .
inactive

* * *

# target.entity: Nuclear receptor subfamily 1 group I member 2 (Homo sapiens) (UniProt O75469)
# assay.comment: Human pregnane X receptor (PXR) activation by small molecules, qHTS assay (AID 1346985); note: nearly all actives have a fitted effect of over 40% in size; for activation: % is set by controls: 0 for no effect and ±100 for the full control effect
# recorded.conditions: DPX-2 HepG2 CYP3A4-luciferase, 24 h; series mostly up to 38.3 µM
Inconclusive results are not listed. The source made the active and inactive calls. Calls come from the whole dose curve; as a rule, active = well fitted activation curve with a large enough effect in the repeat runs; inconclusive = weak or mixed curves; inactive = flat fitted curve, though single readings scatter.
# valid calls are active, inactive; nothing else

Hi team, can someone confirm the assay call for CCCCC(=O)O[C@]1(C(=O)CO)CC[C@H]2[C@@H]3CCC4=CC(=O)CC[C@]4(C)[C@H]3[C@@H](O)C[C@@]21C ?
inactive

For this compound, state the assay outcome: COc1cc2[nH]c(=O)[nH]c(=O)c2cc1OC
inactive

What classification did O=C(O)C(Cc1cc(I)c(O)c(I)c1)c1ccccc1 (configuration not stated) end up with in this test?
inactive

I'd appreciate the recorded outcome for CCOc1cc(N)c(Cl)cc1C(=O)NCC1CN(Cc2ccc(F)cc2)CCO1 (configuration not stated) from this test.
active

What did this assay record as the result for CC(=O)OCC(=O)[C@H]1CC[C@H]2[C@@H]3CCC4=CC(=O)CC[C@]4(C)[C@H]3CC[C@]12C ?
inactive

Which result was noted for this compound in the test: COCc1c(C(C)C)nc(C(C)C)c(/C=C/[C@@H](O)C[C@@H](O)CC(=O)O)c1-c1ccc(F)cc1
active

Could you kindly confirm the outcome this assay logged for CCCCCCCCCCCC(=O)[O][Sn]([CH2]CCC)([CH2]CCC)[O]C(=O)CCCCCCCCCCC ?
inactive
